Where these numbers come from: ChEMBL document CHEMBL3988442

# target_of_assay: Protein translocase subunit SecA (Escherichia coli (strain K12))
# experimental_details: Assay to Identify E. coli SecA ATPase Inhibitors
# Type: functional
# Set-up: scale not given: direction of the effect not stated beside the values
# assay_conditions: 30 µM
Results with a measured potency or affinity are listed apart.
measured_endpoint: Percent Effect (%)
Give a bare numeral; the unit % is implied.

Observe how each entry below is paired with its result.
| compound | output_unit | Percent Effect |
| --- | --- | --- |
| N#Cc1cnn(-c2ccc(C(=O)Nc3ccccn3)cc2)c1N | % | -1.12 |
| Cc1cnc(CN2CCOC(Cn3nc(C)nc3C)C2)cn1 (stereo unspecified) | % | -1.64 |
| O=C(CC1CC1)NCc1cn2c(n1)CN(C(=O)c1cccnc1)CC2 | % | -2.41 |
| CC(=O)N1CCC(CN2CCN(Cc3nccn3C)C(C)C2)CC1 (stereo unspecified) | % | -0.614 |
| CCNC(c1cccnc1)c1cc(C)cc(C)c1 (stereo unspecified) | % | -3.46 |
| CC1CN(CC(=O)Nc2nncs2)CCN1Cc1nccn1C (stereo unspecified) | % | -6.24 |
| CC(C)CN(C)c1ccc(C(=O)N2CCCC2c2cnn(C)c2)cn1 (stereo unspecified) | % | -0.585 |
| Cc1cnn(CCC(=O)N2C[C@H]3CC[C@@H]2CN(CC(=O)N(C)C)C3)c1 | % | 0.243 |

Given Cc1cc(C)c(CNC(=O)NCc2ccc3c(c2)CCC3)c(=O)[nH]1 , state its recorded Percent Effect. -1.46

Given CNC(=O)c1cccc(NC(=O)Cn2nc(-c3cccs3)oc2=O)c1 , state its recorded Percent Effect. -8.44

Given CC(NC(=O)NCCCN(C)S(C)(=O)=O)c1cccc(Cl)c1 (stereo unspecified) , state its recorded Percent Effect. 1.78
